target system: Recombinant ROCK2 (amino acids 1-552) (Homo sapiens (Human))
method notes: Z′-Lyte kinase assay, ROCK2
Assay type: biochemical
condition context: 0.5 μM compound; read-out: ROCK2 % inh. @ [conc]
quantity: inhibition at 0.5 µM

Please review the entries below; each comes with its answer.
| molecule | inhibition at 0.5 µM |
| --- | --- |
| CN1CCc2nc(N3C4CCC3CNC4)nc(Nc3ccc4[nH]ncc4c3)c2C1 [Example 299] | 70% |
| CCOC(=O)C12CNCC1(C(F)(F)F)CN(c1ncc(Cl)c(Nc3ccc4[nH]ncc4c3)n1)C2 (stereo not shown) [Example 338] | 13% |
| c1cc2[nH]ncc2cc1Nc1nc(N2CC3CCC(C2)N3)nc2c1COC2 [Example 39] | 64% |

Turning to the following molecule.
Specify inhibition at 0.5 µM for CCCC1CNCCN1c1nccc(Nc2ccc3[nH]ncc3c2)n1 (stereo not shown) [Example 69] and stop.
52%

###

Would you mind telling me the reported inhibition at 0.5 µM of each entry?
target system: Recombinant ROCK2 (amino acids 1-552) (Homo sapiens (Human), UniProt O75116)
Sequence (O75116 1-552): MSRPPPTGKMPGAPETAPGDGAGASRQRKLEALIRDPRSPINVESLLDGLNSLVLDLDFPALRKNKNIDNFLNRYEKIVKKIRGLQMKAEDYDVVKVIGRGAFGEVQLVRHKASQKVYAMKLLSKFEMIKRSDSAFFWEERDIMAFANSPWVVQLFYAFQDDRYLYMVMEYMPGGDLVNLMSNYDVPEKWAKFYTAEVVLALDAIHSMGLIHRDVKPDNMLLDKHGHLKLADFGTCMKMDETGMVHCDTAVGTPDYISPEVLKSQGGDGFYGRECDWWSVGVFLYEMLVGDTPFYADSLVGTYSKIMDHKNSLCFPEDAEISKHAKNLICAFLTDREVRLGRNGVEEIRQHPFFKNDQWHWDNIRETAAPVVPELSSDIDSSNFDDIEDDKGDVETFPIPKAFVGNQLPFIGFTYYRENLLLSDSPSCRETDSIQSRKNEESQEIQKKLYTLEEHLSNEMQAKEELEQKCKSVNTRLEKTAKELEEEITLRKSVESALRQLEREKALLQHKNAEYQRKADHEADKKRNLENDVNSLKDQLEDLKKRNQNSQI
method notes: Z′-Lyte kinase assay, ROCK2
Format: biochemical
condition context: 0.5 μM compound; read-out: ROCK2 % inh. @ [conc]
Answers are plain numbers, in %.

| compound | quantitative readout |
| --- | --- |
| c1cc2[nH]ncc2cc1Nc1nc(N2C3CNCC2C3)nc2c1COC2 [Example 283] | 101 |
| c1cc(-c2cn[nH]c2)ccc1Nc1nc(N2C3CCC2CNC3)nc2c1COC2 [Example 279] | 85 |
| c1cc2[nH]ncc2cc1Nc1nc(N2C3CCC2CNC3)nc2c1CNC2 [Example 275] | 90 |

For every item below, please supply its inhibition at 0.5 µM.
1. Cc1cc2[nH]ncc2cc1Nc1nc(N2C3CCC2CNC3)ncc1Cl [Example 318]
2. Oc1nc(N2C3CCC2CNC3)nc(Nc2ccc3[nH]ncc3c2)c1F [Example 320]

1: 50; 2: 97

###

target system: Recombinant ROCK2 (amino acids 1-552) (Homo sapiens (Human), UniProt O75116)
method notes: Z′-Lyte kinase assay, ROCK2
Format: biochemical
condition context: 1 μM compound; read-out: ROCK2 % inh. @ [conc]
Would you mind telling me the reported inhibition at 1 µM of each entry?
One number for each entry, in %.

| compound | inhibition at 1 µM [%] |
| --- | --- |
| CCC1CN(c2nc(C)cc(Nc3ccc4[nH]ncc4c3)n2)CCN1 (centres unmarked) [Example 114] | 82 |
| CC1CCN(c2ncc(Cl)c(Nc3ccc4[nH]ncc4c3)n2)CCN1 (centres unmarked) [Example 191] | 67 |
| Cc1nc(N2CCNCC2C)nc(Nc2ccc3[nH]ncc3c2)c1C (centres unmarked) [Example 27] | 71.3 |
| Clc1cnc(N2CC3CCC(C2)N3)nc1Nc1ccc2[nH]ncc2c1 [Example 195] | 66 |

Turning to the following compound.
Report value only: inhibition at 1 µM, Recombinant ROCK2 (amino acids 1-552) (Homo sapiens (Human), UniProt O75116), CCC1CCN(c2ncc(OC)c(Nc3ccc4[nH]ncc4c3)n2)CCN1 (centres unmarked) [Example 54]
58.5

###

Would you mind telling me the reported inhibition at 1 µM of each entry?
target system: Recombinant ROCK2 (amino acids 1-552) (Homo sapiens (Human), UniProt O75116)
method notes: Z′-Lyte kinase assay, ROCK2
Type: biochemical
condition context: 1 μM compound; read-out: ROCK2 % inh. @ [conc]
Give bare numbers, in %.

Please review the entries below; each comes with its answer.
| compound | target system | inhibition at 1 µM (%) |
| --- | --- | --- |
| c1ccc2c(c1)C(C1CCNCC1)CN2c1nccc(Nc2ccc3[nH]ncc3c2)n1 (stereo not drawn) | Recombinant ROCK2 (amino acids 1-552) (Homo sapiens (Human), UniProt O75116) | 13.8 |
| Cc1cc(Nc2ccc3[nH]ncc3c2)nc(N2CCNCC(C)C2)n1 (stereo not drawn) | Recombinant ROCK2 (amino acids 1-552) (Homo sapiens (Human), UniProt O75116) | 95.6 |
| Cc1cc(Nc2ccc3[nH]ncc3c2)nc(N2CC3CC(C2)N3)n1 | Recombinant ROCK2 (amino acids 1-552) (Homo sapiens (Human), UniProt O75116) | 93.1 |
| CCC1CCN(c2nc(C)cc(Nc3ccc4[nH]ncc4c3)n2)CCN1 (stereo not drawn) | Recombinant ROCK2 (amino acids 1-552) (Homo sapiens (Human), UniProt O75116) | 68.4 |
| Cc1cnc(N2CC(C)NC(C)C2)nc1Nc1ccc2[nH]ncc2c1 (stereo not drawn) | Recombinant ROCK2 (amino acids 1-552) (Homo sapiens (Human), UniProt O75116) | 0 |

For every item below, please supply its inhibition at 1 µM.
1. Cc1nc(N2CCCNC(C)C2)nc(Nc2ccc3[nH]ncc3c2)c1C (stereo not drawn)
2. CCC1CNCCN1c1nccc(Nc2ccc3[nH]ncc3c2)n1 (stereo not drawn)
3. COc1cnc(N2CCNCC2)nc1Nc1ccc2[nH]ncc2c1
4. Fc1cnc(N2CCN3CCNCC3C2)nc1Nc1ccc2[nH]ncc2c1 (stereo not drawn)

[76.5, 94.4, 90.6, 17.6]

###

target system: Recombinant ROCK2 (amino acids 1-552) (Homo sapiens (Human))
method notes: Z′-Lyte kinase assay, ROCK2
Type: biochemical
condition context: 1 μM compound; read-out: ROCK2 % inh. @ [conc]
quantity: inhibition at 1 µM
Answer format reminder: number followed by unit.

Please review the entries below; each comes with its answer.
| compound | target system | inhibition at 1 µM |
| --- | --- | --- |
| CC(C)C1CN(c2ncc(F)c(Nc3ccc4[nH]ncc4c3)n2)CCN1 (centres unmarked) | Recombinant ROCK2 (amino acids 1-552) (Homo sapiens (Human)) | 37.6% |
| c1cc(Nc2ccc3[nH]ncc3c2)nc(N2CC3CCC2CN3)n1 (centres unmarked) | Recombinant ROCK2 (amino acids 1-552) (Homo sapiens (Human)) | 99.2% |
| CC1CNCCN1c1ncc(Cl)c(Nc2ccc3[nH]ncc3c2)n1 (centres unmarked) | Recombinant ROCK2 (amino acids 1-552) (Homo sapiens (Human)) | 77.6% |
| Cc1cc(Nc2ccc3[nH]ncc3c2)nc(N2CCNC(C(C)C)CC2)n1 (centres unmarked) | Recombinant ROCK2 (amino acids 1-552) (Homo sapiens (Human)) | 31.8% |

Report value only: inhibition at 1 µM, Recombinant ROCK2 (amino acids 1-552) (Homo sapiens (Human)), Fc1cnc(N2CCC3CNCC3CC2)nc1Nc1ccc2[nH]ncc2c1 (centres unmarked)
99.5%

###

target system: Recombinant ROCK1 (amino acids 1-535) (Homo sapiens (Human), UniProt Q13464)
Sequence (Q13464 1-535): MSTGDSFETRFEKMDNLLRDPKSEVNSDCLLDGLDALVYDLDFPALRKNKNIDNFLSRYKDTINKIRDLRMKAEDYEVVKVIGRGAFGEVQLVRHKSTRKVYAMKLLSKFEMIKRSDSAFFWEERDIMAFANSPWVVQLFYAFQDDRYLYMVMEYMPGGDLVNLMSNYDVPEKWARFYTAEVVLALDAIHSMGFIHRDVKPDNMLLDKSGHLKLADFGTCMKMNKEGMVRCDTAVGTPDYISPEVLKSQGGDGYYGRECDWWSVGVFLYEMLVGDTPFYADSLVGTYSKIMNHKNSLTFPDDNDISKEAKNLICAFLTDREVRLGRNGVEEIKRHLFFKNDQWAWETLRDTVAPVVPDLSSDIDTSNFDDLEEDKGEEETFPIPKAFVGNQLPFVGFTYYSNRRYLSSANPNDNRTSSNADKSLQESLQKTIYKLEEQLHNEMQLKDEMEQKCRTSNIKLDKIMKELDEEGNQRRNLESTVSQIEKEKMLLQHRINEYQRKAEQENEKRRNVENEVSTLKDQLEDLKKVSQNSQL
method notes: Z′-Lyte kinase assay, ROCK1
Format: biochemical
condition context: 3 μM compound; read-out: ROCK1 % inh. @ [conc]
quantity: inhibition at 3 µM (%)
Answers are plain numbers, in %.

Please review the entries below; each comes with its answer.
| molecule | unit of measure | inhibition at 3 µM |
| --- | --- | --- |
| CC1CNCCN1c1nccc(Nc2ccc3[nH]ncc3c2)n1 (stereo not drawn) | % | 100 |
| CC1CN(c2nccc(Nc3ccc(-c4ccncc4)cc3)n2)CCCN1 (stereo not drawn) | % | 99 |
| c1cc(Nc2ccc3[nH]ncc3c2)nc(N2CCCNCC2)n1 | % | 100 |
| CC(C)C1CCN(c2nccc(Nc3ccc4[nH]ncc4c3)n2)CCN1 (stereo not drawn) | % | 100 |
| CC1CN(c2nccc(Nc3ccc4[nH]ncc4c3)n2)CCN1 (stereo not drawn) | % | 80.9 |

Specify inhibition at 3 µM for Cc1cc(Nc2ccc(-c3ccncc3)cc2)nc(N2CCNC(C)CC2)n1 (stereo not drawn) and stop.
100

###

target system: Recombinant ROCK2 (amino acids 1-552) (Homo sapiens (Human))
method notes: Z′-Lyte kinase assay, ROCK2
Type: biochemical
condition context: 0.5 μM compound; read-out: ROCK2 % inh. @ [conc]
quantity: inhibition at 0.5 µM (%)
Answers are plain numbers, in %.

For every item below, please supply its inhibition at 0.5 µM.
1. CCOC(=O)[C@H]1N[C@@H]2C[C@@H]1CN(c1ncc(Cl)c(Nc3ccc4[nH]ncc4c3)n1)C2 (stereo in doubt)
2. Clc1cnc(N2CC3CNCC(C2)O3)nc1Nc1ccc2[nH]ncc2c1
3. Fc1cc2[nH]ncc2cc1Nc1nc(N2C3CNCC2C3)ncc1Cl
4. c1cc2[nH]ncc2cc1Nc1nc(N2CC3CC2CN3)nc2c1COC2 (centres unmarked)

[64, 25, 98, 30]

###

Test system: human ACTA2 gene promoter luciferase reporter in NIH3T3 cells
method notes: NIH3T3 Acta2-promoter driven-luciferase assay
Assay type: cell-based
condition context: NIH3T3, 24 h, with TGFβ1, 24 hr; read-out: NIH3T3 Acta2-luc, IC50
quantity: IC50 (nM)
Give bare numbers, in nM.

Please review the entries below; each comes with its answer.
| compound | unit of measure | quantitative readout |
| --- | --- | --- |
| Fc1cnc(N2CCC3NCC3C2)nc1Nc1ccc2[nH]ncc2c1 (stereo not drawn) | nM | 572 |
| CN(C)c1nc(N2C3CCC2CNC3)nc(Nc2ccc3[nH]ncc3c2)c1F | nM | 1950 |
| CN(C)c1cc(Nc2cc3cn[nH]c3cc2F)nc(N2C3CCC2CNC3)n1 | nM | 318 |
| Cc1nc(N2CC3CC2CN3)nc(Nc2ccc3[nH]ncc3c2)c1F (stereo not drawn) | nM | 245 |
| COc1nc(N2C3CCC2CNC3)nc(Nc2ccc3[nH]ncc3c2)c1F | nM | 59 |

For every item below, please supply its IC50.
1. Fc1cnc(N2CC3CNCC(C2)O3)nc1Nc1ccc2[nH]ncc2c1
2. CN(C)c1cc(Nc2ccc3[nH]ncc3c2)nc(N2C3CCC2CNC3)n1
3. CCN(C)c1cc(Nc2ccc3[nH]ncc3c2)nc(N2C3CCC2CNC3)n1
4. c1cc2[nH]ncc2cc1Nc1nc(N2C3CNCC2C3)nc2c1COCC2
5. Cc1nc(N2C3CCC2CNC3)nc(Nc2ccc3[nH]ncc3c2)c1F
6. c1cc(Nc2ccc3[nH]ncc3c2)nc(N2CC[C@@H]3NC[C@@H]3C2)n1

[1370, 116, 80, 2050, 229, 3420]

For every item below, please supply its IC50.
1. FC(F)(F)c1cnc(N2C3CNCC2C3)nc1Nc1ccc2[nH]ncc2c1
2. Fc1cnc(N2CC3CNC(C3)C2)nc1Nc1ccc2[nH]ncc2c1 (stereo not drawn)

980
2040
